tested on: Plasmodium falciparum; assay: Antimalarial activity as reduced parasitaemia after 72 hrs against chloroquine-resistant Plasmodium falciparum K1 infected human O+ erythrocytes by DNA stain without pepstatin; type: functional, organism-based; details: K1, 72 h
pEC50: −log10 of the molar value.
readout_name: pEC50

compound=CCCCN1CNc2c(NCc3ccc(Cl)cc3)nc(C#N)nc21 tested_target="Plasmodium falciparum" readout_name=pEC50 result="< 4.52"
compound=N#Cc1nc(NCc2cccc(-c3ccc(Cl)c(Cl)c3)c2)c2ncn(CCCO)c2n1 tested_target="Plasmodium falciparum" readout_name=pEC50 result="< 4.52"
compound=NC(=S)N/N=C(/CCc1ccccc1)c1cc(C(F)(F)F)cc(C(F)(F)F)c1 tested_target="Plasmodium falciparum" readout_name=pEC50 result=4.52
compound=Cc1cccc(/C(=N/NC(N)=S)c2cccc(F)c2)c1 tested_target="Plasmodium falciparum" readout_name=pEC50 result="< 4.52"
compound=COCCCN1CNc2c(NCc3ccc(Cl)c(Cl)c3)nc(C#N)nc21 tested_target="Plasmodium falciparum" readout_name=pEC50 result="< 4.52"
compound=N#Cc1nc(NCc2ccccc2)c2c(n1)N(Cc1ccccc1)CN2 tested_target="Plasmodium falciparum" readout_name=pEC50 result="< 4.52"
compound=N#Cc1nc(NCc2ccc(F)cc2)c2c(n1)N(CCCCO)CN2 tested_target="Plasmodium falciparum" readout_name=pEC50 result="< 4.52"
compound="CCC(C)CNc1nc(C#N)nc2c1NCN2C1CCCC1 (configuration not stated)" tested_target="Plasmodium falciparum" readout_name=pEC50 result="< 4.52"
compound=N#Cc1nc(NCc2cccc(-c3cccnc3)c2)c2ncn(CCCO)c2n1 tested_target="Plasmodium falciparum" readout_name=pEC50 result="< 4.52"
compound=Cc1ccc(/C(=N/NC(N)=S)c2ccccc2)cc1 tested_target="Plasmodium falciparum" readout_name=pEC50 result="< 4.52"
compound=CCCCCCNc1nc(C#N)nc2c1NCN2C1CCCC1 tested_target="Plasmodium falciparum" readout_name=pEC50 result="< 4.52"
compound=N#Cc1nc(NCc2cccc(-c3ccc4ccccc4c3)c2)c2ncn(CCCO)c2n1 tested_target="Plasmodium falciparum" readout_name=pEC50 result="< 4.52"
compound=CCCCN1CNc2c(NCCc3ccccc3)nc(C#N)nc21 tested_target="Plasmodium falciparum" readout_name=pEC50 result="< 4.52"
compound=N#Cc1nc(NCc2cccc(-c3ccsc3)c2)c2ncn(CCCO)c2n1 tested_target="Plasmodium falciparum" readout_name=pEC50 result="< 4.52"
compound="COCC(CN1CNc2c(NCc3ccc(Cl)c(Cl)c3)nc(C#N)nc21)OC (configuration not stated)" tested_target="Plasmodium falciparum" readout_name=pEC50 result="< 4.52"
compound=Cc1ccccc1-c1cccc(CNc2nc(C#N)nc3c2ncn3CCCO)c1 tested_target="Plasmodium falciparum" readout_name=pEC50 result=4.52
compound="CC(Nc1nc(C#N)nc2c1NCN2Cc1ccccc1)c1ccccc1 (configuration not stated)" tested_target="Plasmodium falciparum" readout_name=pEC50 result="< 4.52"
compound="CCC(C)CNc1nc(C#N)nc2c1NCN2Cc1ccccc1 (configuration not stated)" tested_target="Plasmodium falciparum" readout_name=pEC50 result="< 4.52"
compound=C=Cc1cccc(-c2cccc(CNc3nc(C#N)nc4c3ncn4CCCO)c2)c1 tested_target="Plasmodium falciparum" readout_name=pEC50 result="< 4.52"
compound=N#Cc1nc(NCc2cccc(-c3cn(S(=O)(=O)c4ccccc4)c4ccccc34)c2)c2ncn(CCCO)c2n1 tested_target="Plasmodium falciparum" readout_name=pEC50 result=4.52
compound=N#Cc1nc(NCc2ccc(Cl)cc2)c2c(n1)N(Cc1ccccc1)CN2 tested_target="Plasmodium falciparum" readout_name=pEC50 result=4.52
compound=N#Cc1nc(NCc2cccc(Cc3cccc(Cl)c3)c2)c2ncn(CCCO)c2n1 tested_target="Plasmodium falciparum" readout_name=pEC50 result="< 4.52"
